molecular target: WIZ (Homo sapiens, UniProt O95785+Q96SW2); construct: expressed in transfected cells; test: Quantification of WIZ protein levels in HiBit tag fusion protein assay (WIZ HiBit assay in 293T cells); type: cell-based; settings: WIZ HiBit assay in 293T cells; 10-point, 5-fold dilution, highest concentration 25 μM, about 18 hours; read-out: WIZ AC50
Sequence (O95785 whole entry, the tested form may be a part): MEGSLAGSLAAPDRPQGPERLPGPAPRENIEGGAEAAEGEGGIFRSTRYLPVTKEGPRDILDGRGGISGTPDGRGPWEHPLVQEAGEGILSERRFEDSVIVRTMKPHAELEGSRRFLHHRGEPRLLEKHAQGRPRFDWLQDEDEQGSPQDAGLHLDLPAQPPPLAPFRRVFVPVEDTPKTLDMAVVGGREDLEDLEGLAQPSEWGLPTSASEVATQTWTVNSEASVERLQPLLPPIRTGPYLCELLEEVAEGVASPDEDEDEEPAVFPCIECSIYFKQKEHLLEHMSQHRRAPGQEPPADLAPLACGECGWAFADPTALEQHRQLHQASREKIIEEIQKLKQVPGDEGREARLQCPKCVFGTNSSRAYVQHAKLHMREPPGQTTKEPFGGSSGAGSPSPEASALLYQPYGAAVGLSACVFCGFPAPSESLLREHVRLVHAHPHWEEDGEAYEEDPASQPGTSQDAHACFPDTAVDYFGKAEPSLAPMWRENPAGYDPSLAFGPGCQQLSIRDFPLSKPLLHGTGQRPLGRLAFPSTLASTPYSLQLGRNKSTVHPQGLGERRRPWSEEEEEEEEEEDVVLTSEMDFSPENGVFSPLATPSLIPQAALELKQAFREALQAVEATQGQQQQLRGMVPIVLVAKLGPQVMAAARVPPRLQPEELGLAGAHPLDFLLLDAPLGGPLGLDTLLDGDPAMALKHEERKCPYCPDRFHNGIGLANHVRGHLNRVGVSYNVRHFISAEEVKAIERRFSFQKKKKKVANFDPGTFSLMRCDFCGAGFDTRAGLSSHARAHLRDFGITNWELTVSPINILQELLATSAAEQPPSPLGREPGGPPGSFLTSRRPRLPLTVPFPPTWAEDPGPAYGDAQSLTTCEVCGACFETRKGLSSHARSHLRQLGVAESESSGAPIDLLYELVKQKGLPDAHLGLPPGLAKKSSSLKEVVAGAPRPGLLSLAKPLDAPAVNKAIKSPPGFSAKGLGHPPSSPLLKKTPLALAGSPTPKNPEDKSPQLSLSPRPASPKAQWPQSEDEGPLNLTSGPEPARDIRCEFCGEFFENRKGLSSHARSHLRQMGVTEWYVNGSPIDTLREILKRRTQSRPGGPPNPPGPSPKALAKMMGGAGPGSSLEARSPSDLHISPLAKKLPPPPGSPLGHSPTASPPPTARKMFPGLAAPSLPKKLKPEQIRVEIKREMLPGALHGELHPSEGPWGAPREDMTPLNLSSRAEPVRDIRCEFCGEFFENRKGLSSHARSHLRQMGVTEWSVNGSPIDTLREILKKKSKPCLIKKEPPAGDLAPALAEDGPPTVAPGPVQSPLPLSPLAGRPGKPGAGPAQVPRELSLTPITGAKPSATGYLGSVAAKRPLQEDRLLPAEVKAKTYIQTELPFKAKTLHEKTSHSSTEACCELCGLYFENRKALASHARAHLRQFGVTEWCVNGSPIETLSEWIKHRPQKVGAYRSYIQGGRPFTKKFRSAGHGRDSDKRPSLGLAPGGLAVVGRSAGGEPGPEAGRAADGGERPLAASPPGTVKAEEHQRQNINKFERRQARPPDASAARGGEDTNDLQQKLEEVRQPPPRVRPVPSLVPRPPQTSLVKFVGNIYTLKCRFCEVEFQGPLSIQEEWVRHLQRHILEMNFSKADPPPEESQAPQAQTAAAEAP
Sequence (Q96SW2 whole entry, the tested form may be a part): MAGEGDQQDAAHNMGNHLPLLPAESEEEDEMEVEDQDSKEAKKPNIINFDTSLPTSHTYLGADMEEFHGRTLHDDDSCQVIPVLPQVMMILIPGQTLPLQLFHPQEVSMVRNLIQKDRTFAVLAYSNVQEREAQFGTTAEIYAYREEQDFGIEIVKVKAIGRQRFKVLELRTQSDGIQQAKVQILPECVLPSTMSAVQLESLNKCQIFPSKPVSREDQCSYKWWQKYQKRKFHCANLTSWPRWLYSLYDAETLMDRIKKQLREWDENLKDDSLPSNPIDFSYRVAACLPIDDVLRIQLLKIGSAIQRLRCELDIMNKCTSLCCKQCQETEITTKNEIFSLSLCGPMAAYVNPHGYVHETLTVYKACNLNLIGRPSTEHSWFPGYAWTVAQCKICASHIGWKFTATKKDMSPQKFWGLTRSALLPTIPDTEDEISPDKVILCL
Sequence (Q16531 whole entry partner, the tested form may be a part): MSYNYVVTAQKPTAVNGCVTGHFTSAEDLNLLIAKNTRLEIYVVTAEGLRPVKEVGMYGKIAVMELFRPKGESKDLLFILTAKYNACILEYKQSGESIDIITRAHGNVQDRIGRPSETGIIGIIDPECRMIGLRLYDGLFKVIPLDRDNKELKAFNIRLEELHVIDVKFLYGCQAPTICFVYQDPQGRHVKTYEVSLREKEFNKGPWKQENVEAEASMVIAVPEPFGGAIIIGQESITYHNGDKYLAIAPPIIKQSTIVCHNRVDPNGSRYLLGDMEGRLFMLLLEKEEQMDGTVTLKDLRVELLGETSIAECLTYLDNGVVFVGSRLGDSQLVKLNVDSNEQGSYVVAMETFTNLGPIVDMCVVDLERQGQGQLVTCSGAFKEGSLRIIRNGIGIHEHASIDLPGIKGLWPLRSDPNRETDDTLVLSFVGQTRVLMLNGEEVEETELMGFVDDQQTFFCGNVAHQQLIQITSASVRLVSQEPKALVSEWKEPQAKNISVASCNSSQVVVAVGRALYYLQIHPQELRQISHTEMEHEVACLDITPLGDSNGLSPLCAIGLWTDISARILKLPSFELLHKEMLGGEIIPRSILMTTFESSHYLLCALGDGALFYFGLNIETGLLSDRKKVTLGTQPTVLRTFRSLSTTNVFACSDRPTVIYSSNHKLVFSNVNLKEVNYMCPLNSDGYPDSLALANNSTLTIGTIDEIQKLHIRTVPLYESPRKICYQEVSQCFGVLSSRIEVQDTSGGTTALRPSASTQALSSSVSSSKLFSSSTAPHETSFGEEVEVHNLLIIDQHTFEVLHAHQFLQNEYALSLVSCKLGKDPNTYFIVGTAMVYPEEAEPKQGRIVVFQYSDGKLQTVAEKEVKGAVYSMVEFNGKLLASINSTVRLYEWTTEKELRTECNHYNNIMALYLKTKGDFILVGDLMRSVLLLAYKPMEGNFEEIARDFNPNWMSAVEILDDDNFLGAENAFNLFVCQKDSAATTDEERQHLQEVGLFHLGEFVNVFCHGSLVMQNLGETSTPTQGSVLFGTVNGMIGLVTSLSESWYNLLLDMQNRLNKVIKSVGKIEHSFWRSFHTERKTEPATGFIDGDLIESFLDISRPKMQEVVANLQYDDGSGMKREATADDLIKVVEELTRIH
Rule: DC50 below 60 nM gives True. Equal to or above 60 nM gives False.

>  <compound>
O=C1CCN(c2noc3ccc(CN4[C@@H]5CC[C@H]4CNC5)cc23)C(=O)N1 [Example 102]

>  <system-under-test>
WIZ (Homo sapiens, UniProt O95785+Q96SW2)

>  <class-name>
False

$$$$
>  <compound>
CC(C)(C)OC(=O)N1C[C@H]2C[C@@H]1CN2Cc1ccc2onc(N3CCC(=O)NC3=O)c2c1 [Example 96]

>  <system-under-test>
WIZ (Homo sapiens, UniProt O95785+Q96SW2)

>  <class-name>
False

$$$$
>  <compound>
CN1CCCC(Cc2ccc3onc(N4CCC(=O)NC4=O)c3c2)CC1 (centres unmarked) [Example 53]

>  <system-under-test>
WIZ (Homo sapiens, UniProt O95785+Q96SW2)

>  <class-name>
True

$$$$
>  <compound>
CCN1CCN(Cc2ccc3onc(N4CCC(=O)NC4=O)c3c2)CC1 [Example 62]

>  <system-under-test>
WIZ (Homo sapiens, UniProt O95785+Q96SW2)

>  <class-name>
True

$$$$
>  <compound>
C[C@@H]1CN(CC2CCOCC2)C[C@H](C)N1Cc1ccc2onc(N3CCC(=O)NC3=O)c2c1 [Example 109]

>  <system-under-test>
WIZ (Homo sapiens, UniProt O95785+Q96SW2)

>  <class-name>
False

$$$$
>  <compound>
O=C1CCN(c2noc3ccc(CC4C[C@H]5CC[C@@H](C4)N5)cc23)C(=O)N1 (some centres unmarked) [Example 56]

>  <system-under-test>
WIZ (Homo sapiens, UniProt O95785+Q96SW2)

>  <class-name>
False

$$$$
>  <compound>
O=C1CCN(c2noc3ccc(CN4CCN(Cc5cccnc5)CC4)cc23)C(=O)N1 [Example 26]

>  <system-under-test>
WIZ (Homo sapiens, UniProt O95785+Q96SW2)

>  <class-name>
False

$$$$
>  <compound>
O=C1CCN(c2noc3ccc(CN4CC5CCC4CN5CC4CCOCC4)cc23)C(=O)N1 (single isomer, unassigned) [Example 121]

>  <system-under-test>
WIZ (Homo sapiens, UniProt O95785+Q96SW2)

>  <class-name>
False

$$$$
>  <compound>
CC(C)[C@H]1CN(Cc2ccc3onc(N4CCC(=O)NC4=O)c3c2)CCN1C [Example 37]

>  <system-under-test>
WIZ (Homo sapiens, UniProt O95785+Q96SW2)

>  <class-name>
False

$$$$
>  <compound>
O=C1CCN(c2noc3ccc(CC4CCN(CC5CCC(F)(F)CC5)CC4)cc23)C(=O)N1 [Example 2]

>  <system-under-test>
WIZ (Homo sapiens, UniProt O95785+Q96SW2)

>  <class-name>
True

$$$$
>  <compound>
O=C1CCN(c2noc3ccc(CC4CCCNCC4)cc23)C(=O)N1 (centres unmarked) [Example 52]

>  <system-under-test>
WIZ (Homo sapiens, UniProt O95785+Q96SW2)

>  <class-name>
True

$$$$
>  <compound>
O=C1CCN(c2noc3ccc(CC4CCN(CC(F)(F)F)CC4)cc23)C(=O)N1 [Example 13]

>  <system-under-test>
WIZ (Homo sapiens, UniProt O95785+Q96SW2)

>  <class-name>
True

$$$$
>  <compound>
Cc1c(CN2CCN(CC(C)C)[C@@H](C)C2)ccc2onc(N3CCC(=O)NC3=O)c12 [Example 128]

>  <system-under-test>
WIZ (Homo sapiens, UniProt O95785+Q96SW2)

>  <class-name>
True

$$$$
>  <compound>
C[C@H]1CN(Cc2ccc3onc(N4CCC(=O)NC4=O)c3c2)CCN1C [Example 29]

>  <system-under-test>
WIZ (Homo sapiens, UniProt O95785+Q96SW2)

>  <class-name>
True

$$$$
>  <compound>
O=C1CCN(c2noc3ccc(CC4CCN(Cc5ccccc5)CC4)cc23)C(=O)N1 [Example 9]

>  <system-under-test>
WIZ (Homo sapiens, UniProt O95785+Q96SW2)

>  <class-name>
True

$$$$
>  <compound>
C[C@@H]1CN(C2CCC2)CCN1Cc1ccc2onc(N3CCC(=O)NC3=O)c2c1 [Example 77]

>  <system-under-test>
WIZ (Homo sapiens, UniProt O95785+Q96SW2)

>  <class-name>
True

$$$$
>  <compound>
C[C@@H]1CN(C2CCOCC2)CCN1Cc1ccc2onc(N3CCC(=O)NC3=O)c2c1 [Example 78]

>  <system-under-test>
WIZ (Homo sapiens, UniProt O95785+Q96SW2)

>  <class-name>
True

$$$$
